# experiment: Metabolic stability in mouse liver microsomes after 1 hr by LC/MS/MS analysis in presence of NADPH
# Format: ADME, Microsome
# statedConditions: read-out: Stability
Field: remaining at 1 h. Provide a value for each of the compounds that follow.

# return remaining at 1 h for each item in the list
1. CN(CCCNC(=O)c1cccc(C(=O)O)c1)CCCNC(=O)c1cc(NC(=O)c2cc(NC(=O)c3cc(NC(=O)c4nc(NC(=O)C[C@@H](N)CNC(=O)c5cc(NC(=O)c6cc(NC(=O)c7cc(NC(=O)c8nccn8C)cn7C)cn6C)cn5C)cn4C)cn3C)cn2C)cn1C
2. CC(=O)N[C@@H](CNC(=O)c1cc(NC(=O)c2cc(NC(=O)c3cc(NC(=O)c4nccn4C)cn3C)cn2C)cn1C)CC(=O)Nc1cn(C)c(C(=O)Nc2cc(C(=O)Nc3cc(C(=O)Nc4cc(C(=O)NCCCN(C)CCCNC(=O)c5cccc(C(=O)O)c5)n(C)c4)n(C)c3)n(C)c2)n1
3. CC(=O)N[C@H](CCNC(=O)c1cc(NC(=O)c2cc(NC(=O)c3cc(NC(=O)c4nccn4C)cn3C)cn2C)cn1C)C(=O)Nc1cn(C)c(C(=O)Nc2cc(C(=O)Nc3cc(C(=O)Nc4cc(C(=O)NCCCN(C)CCCNC(=O)c5cccc(C(=O)O)c5)n(C)c4)n(C)c3)n(C)c2)n1
4. CN(CCCNC(=O)c1cccc(C(=O)O)c1)CCCNC(=O)c1cc(NC(=O)c2cc(NC(=O)c3cc(NC(=O)c4nc(NC(=O)[C@H](N)CCNC(=O)c5cc(NC(=O)c6cc(NC(=O)c7cc(NC(=O)c8nccn8C)cn7C)cn6C)cn5C)cn4C)cn3C)cn2C)cn1C

Reply |
["> 90%", "< 5%", "> 90%", "> 90%"]

###

# experiment: Metabolic stability in human liver microsomes after 1 hr by LC/MS/MS analysis
# Format: ADME, Microsome
# statedConditions: read-out: Stability
Would you mind telling me the reported remaining at 1 h of each entry?

Example cases with answers are listed next.
CN(CCCNC(=O)c1cccc(C(=O)O)c1)CCCNC(=O)c1cc(NC(=O)c2cc(NC(=O)c3cc(NC(=O)c4nc(NC(=O)[C@H](N)CCNC(=O)c5cc(NC(=O)c6cc(NC(=O)c7cc(NC(=O)c8nccn8C)cn7C)cn6C)cn5C)cn4C)cn3C)cn2C)cn1C: > 90%
CC(=O)N[C@@H](CNC(=O)c1cc(NC(=O)c2cc(NC(=O)c3cc(NC(=O)c4nccn4C)cn3C)cn2C)cn1C)CC(=O)Nc1cn(C)c(C(=O)Nc2cc(C(=O)Nc3cc(C(=O)Nc4cc(C(=O)NCCCN(C)CCCNC(=O)c5cccc(C(=O)O)c5)n(C)c4)n(C)c3)n(C)c2)n1: < 5%
CC(=O)N[C@H](CCNC(=O)c1cc(NC(=O)c2cc(NC(=O)c3cc(NC(=O)c4nccn4C)cn3C)cn2C)cn1C)C(=O)Nc1cn(C)c(C(=O)Nc2cc(C(=O)Nc3cc(C(=O)Nc4cc(C(=O)NCCCN(C)CCCNC(=O)c5cccc(C(=O)O)c5)n(C)c4)n(C)c3)n(C)c2)n1: > 90%

Ask | Field request: remaining at 1 h | item: `CN(CCCNC(=O)c1cccc(C(=O)O)c1)CCCNC(=O)c1cc(NC(=O)c2cc(NC(=O)c3cc(NC(=O)c4nc(NC(=O)C[C@@H](N)CNC(=O)c5cc(NC(=O)c6cc(NC(=O)c7cc(NC(=O)c8nccn8C)cn7C)cn6C)cn5C)cn4C)cn3C)cn2C)cn1C`
Reply | > 90%

###

# experiment: Metabolic stability in human liver microsomes after 1 hr by LC/MS/MS analysis in presence of NADPH
# Format: ADME, Microsome
# statedConditions: read-out: Stability
quantityName: remaining at 1 h

CC(=O)N[C@H](CCNC(=O)c1cc(NC(=O)c2cc(NC(=O)c3cc(NC(=O)c4nccn4C)cn3C)cn2C)cn1C)C(=O)Nc1cn(C)c(C(=O)Nc2cc(C(=O)Nc3cc(C(=O)Nc4cc(C(=O)NCCCN(C)CCCNC(=O)c5cccc(C(=O)O)c5)n(C)c4)n(C)c3)n(C)c2)n1: > 90%

Give remaining at 1 h for all molecules that follow.
1. CN(CCCNC(=O)c1cccc(C(=O)O)c1)CCCNC(=O)c1cc(NC(=O)c2cc(NC(=O)c3cc(NC(=O)c4nc(NC(=O)C[C@@H](N)CNC(=O)c5cc(NC(=O)c6cc(NC(=O)c7cc(NC(=O)c8nccn8C)cn7C)cn6C)cn5C)cn4C)cn3C)cn2C)cn1C
2. CC(=O)N[C@@H](CNC(=O)c1cc(NC(=O)c2cc(NC(=O)c3cc(NC(=O)c4nccn4C)cn3C)cn2C)cn1C)CC(=O)Nc1cn(C)c(C(=O)Nc2cc(C(=O)Nc3cc(C(=O)Nc4cc(C(=O)NCCCN(C)CCCNC(=O)c5cccc(C(=O)O)c5)n(C)c4)n(C)c3)n(C)c2)n1
3. CN(CCCNC(=O)c1cccc(C(=O)O)c1)CCCNC(=O)c1cc(NC(=O)c2cc(NC(=O)c3cc(NC(=O)c4nc(NC(=O)[C@H](N)CCNC(=O)c5cc(NC(=O)c6cc(NC(=O)c7cc(NC(=O)c8nccn8C)cn7C)cn6C)cn5C)cn4C)cn3C)cn2C)cn1C

Reply |
> 90%
< 5%
> 90%

###

# experiment: Metabolic stability in mouse liver microsomes after 1 hr by LC/MS/MS analysis
# Type: ADME, Microsome
# statedConditions: read-out: Stability
quantityName: remaining at 1 h

Would you mind listing remaining at 1 h for each of the following compounds?
1. CC(=O)N[C@H](CCNC(=O)c1cc(NC(=O)c2cc(NC(=O)c3cc(NC(=O)c4nccn4C)cn3C)cn2C)cn1C)C(=O)Nc1cn(C)c(C(=O)Nc2cc(C(=O)Nc3cc(C(=O)Nc4cc(C(=O)NCCCN(C)CCCNC(=O)c5cccc(C(=O)O)c5)n(C)c4)n(C)c3)n(C)c2)n1
2. CN(CCCNC(=O)c1cccc(C(=O)O)c1)CCCNC(=O)c1cc(NC(=O)c2cc(NC(=O)c3cc(NC(=O)c4nc(NC(=O)[C@H](N)CCNC(=O)c5cc(NC(=O)c6cc(NC(=O)c7cc(NC(=O)c8nccn8C)cn7C)cn6C)cn5C)cn4C)cn3C)cn2C)cn1C
3. CC(=O)N[C@@H](CNC(=O)c1cc(NC(=O)c2cc(NC(=O)c3cc(NC(=O)c4nccn4C)cn3C)cn2C)cn1C)CC(=O)Nc1cn(C)c(C(=O)Nc2cc(C(=O)Nc3cc(C(=O)Nc4cc(C(=O)NCCCN(C)CCCNC(=O)c5cccc(C(=O)O)c5)n(C)c4)n(C)c3)n(C)c2)n1
4. CN(CCCNC(=O)c1cccc(C(=O)O)c1)CCCNC(=O)c1cc(NC(=O)c2cc(NC(=O)c3cc(NC(=O)c4nc(NC(=O)C[C@@H](N)CNC(=O)c5cc(NC(=O)c6cc(NC(=O)c7cc(NC(=O)c8nccn8C)cn7C)cn6C)cn5C)cn4C)cn3C)cn2C)cn1C

Reply |
> 90%
> 90%
< 5%
> 90%

Source: ChEMBL document CHEMBL2429803
